Answer each item with its documented AGM AP % Max Inhibition, hemolysis assay, 5% serum.
tested.target: African green monkey C5 (African green monkey)
assay.details: cell-based or functional assay
One number for each entry, in %.

For orientation, consider the following solved cases.
H4H12175P (antibody, human IgG4, V domains shown, H4H: human IgG4 Fc with S108P hinge mutation) VH: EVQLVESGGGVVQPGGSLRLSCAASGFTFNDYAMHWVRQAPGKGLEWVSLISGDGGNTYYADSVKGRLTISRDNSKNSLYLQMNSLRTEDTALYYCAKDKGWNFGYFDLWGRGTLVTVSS VL: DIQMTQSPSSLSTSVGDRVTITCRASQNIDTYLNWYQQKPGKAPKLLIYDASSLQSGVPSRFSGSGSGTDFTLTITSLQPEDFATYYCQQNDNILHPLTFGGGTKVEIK :: 17.4
H4H12166P (antibody, V domains shown) VH: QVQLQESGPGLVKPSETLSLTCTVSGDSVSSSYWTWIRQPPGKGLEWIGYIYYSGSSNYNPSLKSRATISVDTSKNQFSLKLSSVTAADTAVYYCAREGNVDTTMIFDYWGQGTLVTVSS VL: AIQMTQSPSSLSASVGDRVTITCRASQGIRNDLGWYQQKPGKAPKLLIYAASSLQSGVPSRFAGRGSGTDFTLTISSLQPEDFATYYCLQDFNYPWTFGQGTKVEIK :: 44.2
H4H12159P (antibody, human IgG4, V domains shown, H4H: human IgG4 Fc with S108P hinge mutation) VH: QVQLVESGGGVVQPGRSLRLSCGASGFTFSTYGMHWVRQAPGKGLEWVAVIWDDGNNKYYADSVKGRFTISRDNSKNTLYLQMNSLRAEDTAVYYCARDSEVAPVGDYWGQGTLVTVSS VL: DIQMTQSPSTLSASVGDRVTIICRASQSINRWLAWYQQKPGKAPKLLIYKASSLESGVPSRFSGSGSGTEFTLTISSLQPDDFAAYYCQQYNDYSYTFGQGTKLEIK :: 93.5
H4H11683N (antibody, human IgG4, V domains shown, tested with H4H prefix (human IgG4 Fc with S108P hinge mutation); variable regions follow the numerical identifier; also called H2M11683N) VH: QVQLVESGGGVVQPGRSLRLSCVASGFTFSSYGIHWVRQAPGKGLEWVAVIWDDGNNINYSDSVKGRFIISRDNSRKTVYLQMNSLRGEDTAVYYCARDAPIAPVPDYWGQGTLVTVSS VL: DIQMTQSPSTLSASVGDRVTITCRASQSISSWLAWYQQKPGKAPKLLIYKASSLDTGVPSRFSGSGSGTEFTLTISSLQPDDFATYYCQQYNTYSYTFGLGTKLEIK :: 88.1

Please turn your attention to the following entry.
Could you share which AGM AP % Max Inhibition, hemolysis assay, 5% serum value was measured for H4H12167P (antibody, human IgG4, V domains shown, H4H: human IgG4 Fc with S108P hinge mutation) VH: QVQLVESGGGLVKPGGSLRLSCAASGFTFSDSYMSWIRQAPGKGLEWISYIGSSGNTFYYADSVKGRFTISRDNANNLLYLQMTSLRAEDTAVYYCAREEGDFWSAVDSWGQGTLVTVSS VL: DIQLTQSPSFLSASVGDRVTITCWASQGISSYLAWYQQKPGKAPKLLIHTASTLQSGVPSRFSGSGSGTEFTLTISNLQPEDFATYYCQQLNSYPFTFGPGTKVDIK ?
53.4
